Listed next: entries and their corresponding fraction unbound at 2 h, 2 μM.
system: melanin; assay: Binding capacity of compounds to melanin; type: in vitro ADME; details: Sepia officinalis (cuttlefish), melanin suspension (1 mg/mL); 1 mg/mL melanin suspension in PBS pH 7.4, 2 μM compound, 2 h at 37° C.; read-out: Fu % (percentage of free drug, not bound to melanin)

CNC(=O)c1ccccc1Sc1ccc2c(/C=C/c3ccc(OCCN4CCOCC4)cn3)n[nH]c2c1 :: 0.01 to 0.05
CNC(=O)c1ccccc1Sc1ccc2c(/C=C/c3cnn(CCN4CCCC4)c3)n[nH]c2c1 :: 0.01 to 0.05
CNC(=O)c1ccccc1Sc1ccc2c(/C=C/c3ccc(OCC4CCN(C)C4)cn3)n[nH]c2c1 (stereo not shown) :: > 0.05

// sample O=C(NC1CC1)c1cc(F)ccc1Sc1ccc2c(/C=C/c3ccc(CN4CCCC4)cn3)n[nH]c2c1 , its fraction unbound at 2 h, 2 μM was 0.01 to 0.05
